Tested on: breast cancer cells (MDA-MB-468)
TEST_DESCRIPTION: Cancer cell line growth inhibition, Sulforhodamine B assay, MDA-MB-468
Assay type: cell-based
CONDITION_NOTES: Homo sapiens, MDA-MB-468, MDA-MB-468 breast cancer cell line; read-out: Cancer Cell Line GI50 Range MDA-MB-468
MEASUREMENT_KIND: GI50

The examples below pair each entry with its known result.
[
  {
    "COMPOUND": "Cc1cc(-c2cnn3c(NCCN4CCOCC4)cc(Oc4cccc(N(C)C)c4)nc23)ccc1C(=O)NC1CC1",
    "GI50": "> 0.5 µM"
  },
  {
    "COMPOUND": "CC(=O)Nc1cccc(Oc2nc(NCC3CCOCC3)n3ncc(-c4ccc(C(=O)NC5CC5)c(C)c4)c3n2)c1",
    "GI50": "0.1 to 0.5 µM"
  },
  {
    "COMPOUND": "Cc1cc(-c2cnn3c(NCC4CCOCC4)cc(NCc4cccnc4)nc23)ccc1C(=O)NC1CC1",
    "GI50": "0.1 to 0.5 µM"
  },
  {
    "COMPOUND": "Cc1cc(-c2cnn3c(NC[C@H]4CCOC4)cc(N[C@H]4CCCC[C@H]4O)nc23)ccc1C(=O)NC1CC1",
    "GI50": "≤ 0.1 µM"
  }
]

Noted for `Cc1cc(-c2cnn3c(NCC4CCOCC4)nc(NC4CCOCC4)nc23)ccc1C(=O)NC1CC1` : its GI50 reads > 0.5 µM

The compound listed as `Cc1cc(-c2cnn3c(NCC4CCOCC4)cc(N[C@H](CO)C(C)(C)C)nc23)ccc1C(=O)NC1CC1` has a reported GI50 of 0.1 to 0.5 µM

The recorded GI50 for `Cc1cc(-c2cnn3c(NC[C@H]4C[C@H](O)C4)cc(NC4CCOCC4)nc23)ccc1C(=O)NC1CC1` is 0.1 to 0.5 µM

# compound `Cc1cc(-c2cnn3c(NCC4CCOCC4)cc(N[C@H](CO)CC(C)C)nc23)ccc1C(=O)NC1CC1` ; its GI50 = 0.1 to 0.5 µM

// sample `Cc1cc(-c2cnn3c(NCCN4CCOCC4)cc(NC4CCCC4)nc23)ccc1C(=O)NC1CC1` , its GI50 was 0.1 to 0.5 µM

What the record says about `Cc1cc(-c2cnn3c(NCC4CCOCC4)nc(Nc4ccccc4)nc23)ccc1C(=O)NC1CC1` : GI50 is > 0.5 µM

For `Cc1cc(-c2cnn3c(NCC4CCOCC4)cc(N[C@@H](C(C)C)C(C)(C)O)nc23)ccc1C(=O)NC1CC1` the compound record lists GI50 as ≤ 0.1 µM

Cc1cc(-c2cnn3c(NCC4CCOCC4)cc(OC4CCN(C5COC5)C4)nc23)ccc1C(=O)NC1CC1 (stereo not drawn) yielded GI50 of 0.1 to 0.5 µM

Measured GI50, `Cc1cc(-c2cnn3c(NCC4CCOCC4)cc(-c4ccnn4C)nc23)ccc1C(=O)NC1CC1` : 0.1 to 0.5 µM

According to the records, this compound `Cc1cc(-c2cnn3c(NCC4CCOCC4)cc(N[C@H]4COCC[C@@H]4O)nc23)ccc1C(=O)NC1CC1` displays GI50 of > 0.5 µM

====

System: Ovarian 2393A tumor initiating cells
TEST_DESCRIPTION: Tumor-initiating cell growth inhibition, Alamar Blue assay, ovarian TICs
Assay type: cell-based
CONDITION_NOTES: 144 h; Ovarian 2393A TICs, 6 days; read-out: Tumor Initiating Cell GI50 Range Ovarian 2393A
MEASUREMENT_KIND: GI50

[
  {
    "SMILES_CODE": "Cc1cc(-c2cnn3c(NCC4CCOCC4)cc(N[C@@H](C(C)C)C(C)(C)O)nc23)ccc1C(=O)NC1CC1",
    "MEASUREMENT_KIND": "GI50",
    "ENDPOINT_RESULT": "100 to 500 nM"
  },
  {
    "SMILES_CODE": "Cc1cc(-c2cnn3c(NCC4CCOCC4)cc(-c4ccncc4)nc23)ccc1C(=O)NC1CC1",
    "MEASUREMENT_KIND": "GI50",
    "ENDPOINT_RESULT": "100 to 500 nM"
  },
  {
    "SMILES_CODE": "Cc1cc(-c2cnn3c(NCC4CCOCC4)cc(N[C@H](CO)C(C)C)nc23)ccc1C(=O)NC1CC1",
    "MEASUREMENT_KIND": "GI50",
    "ENDPOINT_RESULT": "≤ 100 nM"
  }
]

Please turn your attention to the following entry.
Hey, Ovarian 2393A tumor initiating cells data for `Cc1cc(-c2cnn3c(NC[C@H]4C[C@H](O)C4)cc(Oc4cccnc4)nc23)ccc1C(=O)NC1CC1` : GI50 came out at ≤ 100 nM
